Values compiled from patent US20250115597A1.

- TEST_METHOD_NOTES: Microsomal metabolic stability assay
- Assay type: in vitro ADME
- EXPERIMENTAL_PARAMETERS: pH 7.4; dog liver microsomes, 0.5 mg/mL protein, 1 μM compound; read-out: Dog LM T½
- Protocol: Microsomal Metabolic Stability Assay Microsomes were pre-incubated with test compound or control compounds for 5 min at 37° C. in 100 mM potassium phosphate buffer, pH 7.4, 1.0 mM EDTA. […] 50 μL of supernatant are taken into 96-well assay plates pre-added with 50 μL ultrapure water, and then analyzed by LC/MS/MS. Concentrations of test articles, control compounds in the samples were determined by using LC/MS/MS method. […]
Overview of reported log10 of half-life at 1 μM across a group of compounds:
Field: value | Transform: log10 | Quantity: half-life at 1 μM | Unit: min

Record excerpt, results attached:
[2H]C([2H])([2H])NC(=O)c1cnc2cc1Nc1cc(cc(-c3ncn(C4CC4)n3)c1OC)COCc1nc(ccc1F)N2	1.72
[2H]C([2H])([2H])NC(=O)c1nnc(NC(=O)C2CC2)cc1Nc1csc2ccn(CC)c(=O)c12	1.82
[2H]C([2H])([2H])NC(=O)c1cnc2cc1Nc1cc(cc(-c3ncn(C)n3)c1OC)COCc1nc(ccc1F)N2	1.78
[2H]C([2H])([2H])NC(=O)c1cnc(Nc2ccc(F)cn2)cc1Nc1ccc2cnn(CC)c2c1OC	1.08
[2H]C([2H])([2H])NC(=O)c1cnc(NC(=O)C2CC2)cc1Nc1ccc2cnn(CC(N)=O)c2c1OC	2.18
[2H]C([2H])([2H])NC(=O)c1cnc(NC(=O)C2CC2)cc1Nc1cc(F)c2cnn(CC)c2c1OC	1.41

Qu. Fill blank: measured log10 of half-life at 1 μM of the compound `[2H]C([2H])([2H])NC(=O)c1cnc2cc1Nc1cc(cc(-c3ncc(F)cn3)c1OC)COCc1nc(ccc1F)N2` is ____.
Ans. 1.84

###

- TEST_METHOD_NOTES: Microsomal metabolic stability assay
- Assay type: in vitro ADME
- EXPERIMENTAL_PARAMETERS: pH 7.4; rat liver microsomes, 0.5 mg/mL protein, 1 μM compound; read-out: Rat LM Clint
The label depends only on microsomal CLint at 1 μM: fulfilled if it is at least 20 µL/min/mg, not fulfilled if it is smaller.

Please review the following examples before continuing.
CNC(=O)c1cnc(NC(=O)C2CC2)cc1Nc1cn(C)c2ccn(C)c(=O)c12	not fulfilled
CNC(=O)c1cnc(NC(=O)C2CC2)cc1Nc1csc2ccn(C)c(=O)c12	fulfilled
[2H]C([2H])([2H])NC(=O)c1cnc(Nc2ccc(F)cn2)cc1Nc1cn(CCOC)c2ccn(CC)c(=O)c12	fulfilled
[2H]C([2H])([2H])NC(=O)c1nnc2cc1Nc1cc(cc(-c3ccn(C)n3)c1OC)COCc1nc(ccc1F)N2	fulfilled
[2H]C([2H])([2H])NC(=O)c1cnc(NC(=O)C2CC2)cc1Nc1ccc2cnn(CC)c2c1OC	fulfilled
CNC(=O)c1cnc2nc1Nc1cc(cc(-c3ncn(C)n3)c1OC)COCc1cccc(c1)N2	fulfilled
[2H]C([2H])([2H])NC(=O)c1cnc(NC(=O)C2CC2)cc1Nc1cn(C)c2c(F)cn(CC(F)(F)F)c(=O)c12	fulfilled
[2H]C([2H])([2H])NC(=O)c1cnc(NC(=O)C2CC2)cc1Nc1cn(C)c2ncn(CC(F)(F)F)c(=O)c12	not fulfilled

Qu. Dear colleague, could you confirm whether `[2H]C([2H])([2H])NC(=O)c1cnc2nc1Nc1cc(cc(-c3ncn(C)n3)c1OC)COCc1cc(F)cc(c1)N2` has microsomal CLint at 1 μM at or above 20 µL/min/mg?
Ans. fulfilled

Qu. Dear colleague, could you confirm whether `[2H]C([2H])([2H])NC(=O)c1cnc(NC(=O)C2CC2)cc1Nc1csc2c(Cl)cn(C([2H])([2H])[2H])c(=O)c12` has microsomal CLint at 1 μM at or above 20 µL/min/mg?
Ans. fulfilled

Qu. Dear colleague, could you confirm whether `[2H]C([2H])([2H])NC(=O)c1cnc2nc1Nc1cc(cc(-c3ncn(C)n3)c1OC)COCc1cc(cc(F)c1F)N2` has microsomal CLint at 1 μM at or above 20 µL/min/mg?
Ans. fulfilled

Qu. Dear colleague, could you confirm whether `[2H]C([2H])([2H])NC(=O)c1cnc(Nc2ccn(C)n2)cc1Nc1ccc2cnn(CC)c2c1OC` has microsomal CLint at 1 μM at or above 20 µL/min/mg?
Ans. fulfilled

Qu. Dear colleague, could you confirm whether `[2H]C([2H])([2H])NC(=O)c1cnc2cc1Nc1cc(cc(-c3ncn(C)n3)c1OC)COCc1nc(ccc1F)N2` has microsomal CLint at 1 μM at or above 20 µL/min/mg?
Ans. not fulfilled

Qu. Dear colleague, could you confirm whether `[2H]C([2H])([2H])NC(=O)c1cnc2cc1Nc1cc(cc(-c3ncn(C)n3)c1OC)COCc1cc(F)cc(n1)N2` has microsomal CLint at 1 μM at or above 20 µL/min/mg?
Ans. not fulfilled

###

- TARGET_SYSTEM: Ba/F3-FL-TYK2-P760L cells (Homo sapiens, UniProt P29597, P760L, cells depend on it)
- Construct: BaF3-FL-T2P760L (nM)
- Sequence (P29597 whole entry P760L): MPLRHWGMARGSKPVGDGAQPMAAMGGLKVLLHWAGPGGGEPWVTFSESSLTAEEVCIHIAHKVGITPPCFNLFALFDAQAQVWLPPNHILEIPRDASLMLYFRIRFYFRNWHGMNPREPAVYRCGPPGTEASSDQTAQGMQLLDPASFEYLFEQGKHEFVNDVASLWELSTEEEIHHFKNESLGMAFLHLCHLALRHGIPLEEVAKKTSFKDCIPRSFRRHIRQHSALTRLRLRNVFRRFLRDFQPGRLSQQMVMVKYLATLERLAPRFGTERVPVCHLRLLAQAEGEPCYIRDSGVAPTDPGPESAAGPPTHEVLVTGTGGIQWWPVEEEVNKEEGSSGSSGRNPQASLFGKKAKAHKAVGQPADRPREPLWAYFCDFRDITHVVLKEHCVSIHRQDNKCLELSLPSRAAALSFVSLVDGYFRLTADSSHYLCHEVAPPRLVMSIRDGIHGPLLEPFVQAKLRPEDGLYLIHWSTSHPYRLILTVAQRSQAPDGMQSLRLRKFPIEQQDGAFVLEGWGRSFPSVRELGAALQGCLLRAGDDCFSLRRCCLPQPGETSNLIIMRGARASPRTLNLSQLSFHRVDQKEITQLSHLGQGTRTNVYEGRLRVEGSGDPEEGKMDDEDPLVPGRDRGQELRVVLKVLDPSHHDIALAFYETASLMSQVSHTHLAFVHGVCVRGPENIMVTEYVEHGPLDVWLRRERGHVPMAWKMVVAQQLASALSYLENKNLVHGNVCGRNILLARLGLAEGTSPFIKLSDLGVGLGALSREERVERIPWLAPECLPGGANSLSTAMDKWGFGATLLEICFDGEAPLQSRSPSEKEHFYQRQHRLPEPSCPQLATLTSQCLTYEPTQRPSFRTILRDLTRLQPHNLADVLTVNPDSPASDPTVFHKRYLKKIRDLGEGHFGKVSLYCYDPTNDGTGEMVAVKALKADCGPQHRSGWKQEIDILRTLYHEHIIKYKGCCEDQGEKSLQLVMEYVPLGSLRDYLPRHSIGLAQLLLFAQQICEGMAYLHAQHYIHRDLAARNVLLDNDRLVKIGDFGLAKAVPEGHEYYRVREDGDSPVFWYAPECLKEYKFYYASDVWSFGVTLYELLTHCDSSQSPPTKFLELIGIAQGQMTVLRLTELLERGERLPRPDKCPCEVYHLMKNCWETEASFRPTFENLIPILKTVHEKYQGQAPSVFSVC
- TEST_METHOD_NOTES: Anti-proliferative assay, Ba/F3-FL-TYK2-P760L cells (Cell-Titer Glo)
- Format: cell-based
- EXPERIMENTAL_PARAMETERS: 72 h, read-out: BaF3-FL-T2P760L IC50
Quick rule for you: GI50 under 200 nM gets class 1, anything else gets class 0.

Please review the following examples before continuing.
[2H]C([2H])([2H])NC(=O)c1cnc(Nc2ccn(C)n2)cc1Nc1ncc2cnn(CC)c2c1OC [Example 264]	class 0
[2H]C([2H])([2H])NC(=O)c1cnc(NC(=O)C2CC2)cc1Nc1csc2ncn(CC)c(=O)c12 [Example 216]	class 1
[2H]C([2H])([2H])NC(=O)c1cnc(Nc2cnn(C3CCOC3)c2)nc1Nc1cccc(-c2ncn(C)n2)c1OC (stereo not drawn) [Example 31]	class 0
CNC(=O)c1cnc(NC(=O)C2CC2)cc1Nc1nn(C)c2ccn(CC(F)(F)F)c(=O)c12 [Example 52]	class 1
[2H]C([2H])([2H])NC(=O)c1cnc(NC(=O)C2CC(C)C2)cc1Nc1ccc2cnn(CC)c2c1OC (stereo not drawn) [Example 236]	class 0
[2H]C([2H])([2H])NC(=O)c1cnc(NC(=O)C2CC2)cc1Nc1ccc2cnn(CC(N)=O)c2c1OC [Example 259]	class 0
[2H]C([2H])([2H])NC(=O)c1cnc(NC(=O)C2CC2)cc1Nc1cn(CCOC2CC2)c2ccn(CC)c(=O)c12 [Example 221]	class 0
[2H]C([2H])([2H])NC(=O)c1cnc(NC(=O)C2CC2)cc1Nc1ncn2ncc(C)c2c1OC [Example 279]	class 1
CCn1ncc2cnc(Nc3cc(NC(=O)C4CC4)ncc3C(=O)NC)c(OC)c21 [Example 261]	class 1
CNC(=O)c1cnc(NC(=O)C2CC2)cc1Nc1cn(C)c2ccn(C(C)C)c(=O)c12 [Example 50]	class 0

Qu. I wonder whether [2H]C([2H])([2H])NC(=O)c1cnc(NC(=O)C2CC2)cc1Nc1ccn2ncc(CC)c2c1OC [Example 166] has GI50 below 200 nM. Can you tell?
Ans. class 1

Qu. I wonder whether [2H]C([2H])([2H])NC(=O)c1cnc(NC(=O)C2CC2)cc1Nc1csc2cnn(C(C)C(F)(F)F)c(=O)c12 (stereo not drawn) [Example 185] has GI50 below 200 nM. Can you tell?
Ans. class 0

Qu. I wonder whether [2H]C([2H])([2H])NC(=O)c1cnc(NC(=O)C2CC2)cc1Nc1cn(C)c2ncn(CC(F)F)c(=O)c12 [Example 194] has GI50 below 200 nM. Can you tell?
Ans. class 0

Qu. I wonder whether [2H]C([2H])([2H])NC(=O)c1cnc(Nc2ccc(F)cn2)cc1Nc1cn(C)c2c(Cl)cn(C)c(=O)c12 [Example 159] has GI50 below 200 nM. Can you tell?
Ans. class 1

###

- TEST_METHOD_NOTES: Microsomal metabolic stability assay
- Assay type: in vitro ADME
- EXPERIMENTAL_PARAMETERS: pH 7.4; dog liver microsomes, 0.5 mg/mL protein, 1 μM compound; read-out: Dog LM Clint
Quick rule for you: microsomal CLint at 1 μM under 10 µL/min/mg gets condition met, anything else gets condition not met.

Please review the following examples before continuing.
[2H]C([2H])([2H])NC(=O)c1cnc(NC(=O)C2CC2)cc1Nc1ccc2cnn(CC(F)F)c2c1OC	condition not met
[2H]C([2H])([2H])NC(=O)c1cnc2nc1Nc1cc(cc(-c3ncn(C)n3)c1OC)COCc1cc(F)cc(c1)N2	condition met
[2H]C([2H])([2H])NC(=O)c1cnc2cc1Nc1cc(cc(-c3ncn(C4CC4)n3)c1OC)COCc1nc(ccc1F)N2	condition not met

Qu. I wonder whether `CNC(=O)c1cnc(NC(=O)C2CC2)cc1Nc1nn(C)c2ccn(CC(F)(F)F)c(=O)c12` has microsomal CLint at 1 μM below 10 µL/min/mg. Can you tell?
Ans. condition not met

Qu. I wonder whether `[2H]C([2H])([2H])NC(=O)c1cnc(Nc2ccc(F)cn2)cc1Nc1ccn2ncc(C#N)c2c1OC` has microsomal CLint at 1 μM below 10 µL/min/mg. Can you tell?
Ans. condition met
